molecular target: human LFA-1 (human) (UniProt P20701); experiment: phage ELISA, solution competition: Fab-phage incubated with serially diluted LFA-1, unbound phage captured on LFA-1-coated wells; IC50 used as affinity estimate
IC50 values, listed per item
Numbers only here, please. The scale is nM.

Guide cases for IC50, answers given:
{"binder": "MHM24 library clone, CDR-L2 SGRAMQR (Fab, V domains shown) VH: EVQLVESGGGLVQPGGSLRLSCAASGYSFTGHWMNWVRQAPGKGLEWVGMIHPSDSETRLNQKFKDRFTISADTSKNTAYLQMNSLRAEDTAVYYCARGIYFYGTTYFDYWGQGTLVTVSS VL: DIQMTQSPSSLSASVGDRVTITCRASKTISKYLAWYQQKPGKAPKLLIYSGRAMQRGVPSRFSGSGSGTDFTLTISSLQPEDFATYYCQQHNEYPLTFGQGTKVEIK", "IC50 (nM)": 11}
{"binder": "MHM24 library clone, CDR-L2 SGYSLHR, VL K27E, L96V (Fab, V domains shown) VH: EVQLVESGGGLVQPGGSLRLSCAASGYSFTGHWMNWVRQAPGKGLEWVGMIHPSDSETRLNQKFKDRFTISADTSKNTAYLQMNSLRAEDTAVYYCARGIYFYGTTYFDYWGQGTLVTVSS VL: DIQMTQSPSSLSASVGDRVTITCRASETISKYLAWYQQKPGKAPKLLIYSGYSLHRGVPSRFSGSGSGTDFTLTISSLQPEDFATYYCQQHNEYPVTFGQGTKVEIK", "IC50 (nM)": 41}

Now for another entry.
Please report IC50 for the following binder: MHM24 library clone, CDR-L2 TGSTLES, VL S26T (Fab, V domains shown) VH: EVQLVESGGGLVQPGGSLRLSCAASGYSFTGHWMNWVRQAPGKGLEWVGMIHPSDSETRLNQKFKDRFTISADTSKNTAYLQMNSLRAEDTAVYYCARGIYFYGTTYFDYWGQGTLVTVSS VL: DIQMTQSPSSLSASVGDRVTITCRATKTISKYLAWYQQKPGKAPKLLIYTGSTLESGVPSRFSGSGSGTDFTLTISSLQPEDFATYYCQQHNEYPLTFGQGTKVEIK
4
